koff listing for selected binders.
- MEASUREMENT_TARGET: T1, cynomolgus monkey IL-33 expressed with a C-terminal hexahistidine tag (cynomolgus monkey)
- T1 construct: also called MfIL-33-6His; Mf-IL-33-6His
- T1 chain: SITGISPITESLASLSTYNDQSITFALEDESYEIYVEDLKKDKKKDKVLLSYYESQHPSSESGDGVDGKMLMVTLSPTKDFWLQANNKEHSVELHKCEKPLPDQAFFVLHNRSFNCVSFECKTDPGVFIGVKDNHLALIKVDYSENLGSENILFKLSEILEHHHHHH
- TEST_SUMMARY: SPR 25C, pH6.0 chase, mAb captured
# number only, unit s⁻¹ dropped from output

Worked examples follow.
BINDER	RESULT_NUMBER
H4H9666P (antibody, human IgG4, V domains shown, Human IgG4 Fc (H4H)) VH: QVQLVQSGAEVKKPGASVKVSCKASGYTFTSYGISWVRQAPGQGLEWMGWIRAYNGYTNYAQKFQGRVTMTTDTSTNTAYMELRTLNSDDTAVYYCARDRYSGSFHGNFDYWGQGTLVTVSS VL: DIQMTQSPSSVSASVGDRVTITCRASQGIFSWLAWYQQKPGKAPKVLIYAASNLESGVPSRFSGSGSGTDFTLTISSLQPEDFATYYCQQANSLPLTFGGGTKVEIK	0.00809
H4H9660P (antibody, human IgG4, V domains shown, Human IgG4 Fc (H4H)) VH: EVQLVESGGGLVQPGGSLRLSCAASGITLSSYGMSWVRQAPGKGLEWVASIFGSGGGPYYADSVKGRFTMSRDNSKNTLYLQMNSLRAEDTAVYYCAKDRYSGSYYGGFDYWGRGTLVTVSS VL: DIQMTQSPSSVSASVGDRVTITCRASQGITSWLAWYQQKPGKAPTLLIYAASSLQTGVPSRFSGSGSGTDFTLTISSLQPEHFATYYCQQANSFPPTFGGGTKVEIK	0.00108

From here, focus on the item given below.
Kindly note the recorded koff for H4H9671P (antibody, human IgG4, V domains shown, Human IgG4 Fc (H4H)) VH: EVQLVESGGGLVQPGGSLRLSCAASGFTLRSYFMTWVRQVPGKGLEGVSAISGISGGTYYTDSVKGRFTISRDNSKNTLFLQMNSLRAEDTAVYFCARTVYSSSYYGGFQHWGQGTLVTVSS VL: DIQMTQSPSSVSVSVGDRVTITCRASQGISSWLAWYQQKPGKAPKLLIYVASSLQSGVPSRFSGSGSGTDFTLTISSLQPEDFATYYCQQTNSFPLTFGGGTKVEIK , which is 0.00161

Source of measurements: patent US20160362487A1
